target.system: human GPR40 receptor (Homo sapiens, UniProt O14842)
Sequence (O14842 whole entry): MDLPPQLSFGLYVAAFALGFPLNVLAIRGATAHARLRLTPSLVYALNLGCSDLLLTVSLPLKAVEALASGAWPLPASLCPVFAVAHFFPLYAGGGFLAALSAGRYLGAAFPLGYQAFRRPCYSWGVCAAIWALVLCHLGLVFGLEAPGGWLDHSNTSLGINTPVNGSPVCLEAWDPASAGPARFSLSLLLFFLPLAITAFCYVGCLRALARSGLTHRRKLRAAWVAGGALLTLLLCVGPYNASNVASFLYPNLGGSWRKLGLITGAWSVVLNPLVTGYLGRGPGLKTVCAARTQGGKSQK
experimental.protocol: IP1 accumulation measurements using the IPOne assay system
Format: cell-based
conditions.used: IP1 accumulation (IPOne HTRF), 1 hour stimulation; 1321N1 cells stably expressing human GPR40; read-out: EC50 values on GPR40 determined as described in (B)
Protocol: (B) IP1 accumulation measurements using the IPOne assay system—1321N1 cells stably expressing human GPR40 receptor (Euroscreen, Belgium) were seeded 24 h before the assay in black clear-bottom collagen-coated 384-well plates in culture medium containing 10% FCS, 1% Na-Pyruvate and 400 μg/mL G418. IP1 is assayed according to the Manufacturer's description (Cisbio Bioassays, France). […] After an incubation time of 1 hour at room temperature plates are measured using an EnVision™, Perkin Elmer.
Rule: EC50 below 100 nM gives TRUE. Equal to or above 100 nM gives FALSE.

{"columns": ["compound", "label.class"],
 "data": [
  ["O=C(O)CC1COc2cc(O[C@@H]3CCc4c(Br)cccc43)ccc21 (mixture of isomers)", "TRUE"],
  ["CO[C@@H](c1cccc2c1CC[C@H]2Oc1ccc2c(c1)OC[C@H]2CC(=O)O)C(F)(F)F (single isomer, unassigned)", "FALSE"],
  ["O=C(O)C[C@@H]1COc2cc(OC3CCc4ccccc43)ccc21 (stereo partly shown)", "FALSE"],
  ["O=C(O)C[C@@H]1COc2cc(O[C@@H]3CCc4cccc(C(F)(F)F)c43)ccc21", "FALSE"]
]}

Quick check: does Cc1nn(C)c(C)c1-c1cccc2c1CC[C@H]2Oc1ccc2c(c1)OC[C@H]2CC(=O)O have EC50 under 100 nM?
FALSE

Please check: EC50 for Cc1ccc2ccccc2c1-c1cccc2c1CC[C@H]2Oc1ccc2c(c1)OC[C@H]2CC(=O)O , strictly under 100 nM or not?
TRUE

Please state whether EC50 is below 100 nM for CO[C@H](c1cccc2c1CC[C@H]2Oc1ccc2c(c1)OC[C@H]2CC(=O)O)C(F)(F)F (single isomer, unassigned)
FALSE

Determine whether this compound shows EC50 lower than 100 nM (ties excluded): CC(O)(c1cccc2c1CC[C@H]2Oc1ccc2c(c1)OC[C@H]2CC(=O)O)C1CCOCC1 (stereo partly shown)
FALSE

I'd appreciate it if you could check whether CC(C)(O)C(F)(F)c1cccc2c1CC[C@H]2Oc1ccc2c(c1)OC[C@H]2CC(=O)O has EC50 smaller than 100 nM.
FALSE

Is the reported EC50 for CO[C@@H](c1cccc2c1CC[C@H]2Oc1ccc2c(c1)OC[C@H]2CC(=O)O)C(C)(C)C (single isomer, unassigned) strictly below 100 nM?
TRUE

Hi there! Is EC50 for CC(C)(C#N)c1cccc2c1CC[C@H]2Oc1ccc2c(c1)OC[C@H]2CC(=O)O below 100 nM, do you know?
FALSE

Say whether its EC50 is strictly beneath 100 nM. Entry: COc1ccc(C)c(-c2cccc3c2CC[C@H]3Oc2ccc3c(c2)OC[C@H]3CC(=O)O)c1C
TRUE

Determine if CC1(C)CCCC=C1c1cccc2c1CC[C@H]2Oc1ccc2c(c1)OC[C@H]2CC(=O)O shows EC50 strictly lower than 100 nM.
TRUE

Is the reported EC50 for O=C(O)C[C@@H]1COc2cc(O[C@@H]3CCc4c(-c5ccccc5C(F)(F)F)cccc43)ccc21 strictly below 100 nM?
TRUE

Strictly below 100 nM: is that where EC50 of CC1(C)CCC=C1c1cccc2c1CC[C@H]2Oc1ccc2c(c1)OC[C@H]2CC(=O)O sits?
TRUE

Threshold test, EC50 < 100 nM: O=C(O)C[C@@H]1COc2cc(O[C@@H]3CCc4c(OC(F)F)cccc43)ccc21
FALSE
